- MEASURED_ON: MLE dsRBD1,2 (UniProt P24785 1-257)
- Sequence (P24785 1-257): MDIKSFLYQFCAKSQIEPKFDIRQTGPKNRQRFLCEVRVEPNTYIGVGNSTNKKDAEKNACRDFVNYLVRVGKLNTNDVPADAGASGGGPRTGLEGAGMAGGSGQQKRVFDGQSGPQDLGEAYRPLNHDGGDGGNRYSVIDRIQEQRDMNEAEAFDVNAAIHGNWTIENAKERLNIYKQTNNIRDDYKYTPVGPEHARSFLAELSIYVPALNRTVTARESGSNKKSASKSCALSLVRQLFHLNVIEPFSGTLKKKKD
- METHOD: filter binding; 5 mM Mg2+; Filter binding: 20 mM HEPES/NaOH pH 8.0, 150 mM NaCl, 5 mM MgCl2, on ice; ITC: 10 mM HEPES pH 8.0, 75 mM NaCl, 2.5 mM MgCl2, 1 mM b-mercaptoethanol, 20 C; NMR:
- CONDITION_DESCRIPTION: protein: recombinant; tags: N-terminal His6 removed by TEV; hairpin
VALUE_TYPE: Kd (µM)
Number in µM, nothing else.

Ask: Give its Kd value. Item: GUGUAAAAUGUUGCAAUAUAUAGUAACGUUUUACGC (structured_RNA) [SL7 14merLoop]
Reply: 6.8

Data provenance: paper PMC6486548
